Please provide measured Activity for the entries that follow.
- Measurement target: UniProtKB P48281
- Test description: Activation of VDR in mouse ASZ001 cells assessed as upregulation of Cyp24A1 mRNA expression at 5 uM measured after 48 hrs by RT-PCR analysis relative to control
- Assay type: cell-based
- Condition summary: filed as activator
Give just the numeric value; % need not be written.

Problem: Which Activity is reported for this compound? "C=C1CC[C@H](O)C/C1=C/C=C1\CCC[C@]2(C)[C@@H]([C@H](C)[C@H](O)CCC(C)C)CC[C@@H]12"
Solution: 103

Problem: Which Activity is reported for this compound? "C=C1CC[C@H](O)C/C1=C/C=C1\CCC[C@]2(C)[C@@H]([C@H](C)[C@@H](O)CCC(C)(C)O)CC[C@@H]12"
Solution: 130

Problem: Which Activity is reported for this compound? "C=C1CC[C@H](O)C/C1=C/C=C1\CCC[C@]2(C)[C@@H]([C@H](C)[C@@H](O)CCC(C)C)CC[C@@H]12"
Solution: 105

Problem: Which Activity is reported for this compound? "C=C1CC[C@H](O)C/C1=C/C=C1\CCC[C@]2(C)[C@@H]([C@H](C)[C@H](O)CCC(C)(C)O)CC[C@@H]12"
Solution: 122

Problem: Which Activity is reported for this compound? C=C1CC[C@H](O)C/C1=C/C=C1\CCC[C@]2(C)[C@@H]([C@H](C)CCCC(C)C)CC[C@@H]12 [CHOLECALCIFEROL]
Solution: 100

----------
Please provide measured Activity for the entries that follow.
- Measurement target: Vitamin D3 receptor (Mus musculus) (UniProt P48281)
- Test description: Activation of VDR in mouse ASZ001 cells assessed as upregulation of Cyp24A1 mRNA expression at 5 uM measured after 48 hrs by RT-PCR analysis relative to control
- Type: cell-based

Problem: Which Activity is reported for this compound? "C=C1CC[C@H](O)C/C1=C/C=C1\CCC[C@]2(C)[C@@H]([C@H](C)[C@H](CCC(C)(C)O)OCc3cn(CCOCCOCCOCCNC(=O)CCCC[C@H]4SC[C@H]5NC(=O)N[C@H]54)nn3)CC[C@@H]12"
Solution: < 1%

Problem: Which Activity is reported for this compound? "C#CCO[C@@H](CCC(C)C)[C@@H](C)[C@H]1CC[C@H]2/C(=C/C=C3/C[C@@H](O)CCC3=C)CCC[C@]12C"
Solution: < 1%

Problem: Which Activity is reported for this compound? "C#CCO[C@H](CCC(C)C)[C@@H](C)[C@H]1CC[C@H]2/C(=C/C=C3/C[C@@H](O)CCC3=C)CCC[C@]12C"
Solution: 9%

Problem: Which Activity is reported for this compound? "C#CCO[C@H](CCC(C)(C)O)[C@@H](C)[C@H]1CC[C@H]2/C(=C/C=C3/C[C@@H](O)CCC3=C)CCC[C@]12C"
Solution: < 1%

Problem: Which Activity is reported for this compound? "C=C1CC[C@H](O)C/C1=C/C=C1\CCC[C@]2(C)[C@@H]([C@H](C)[C@@H](CCC(C)(C)O)OCc3cn(CCOCCOCCOCCNC(=O)CCCC[C@H]4SC[C@H]5NC(=O)N[C@H]54)nn3)CC[C@@H]12"
Solution: < 1%

----------
- Test description: Binding affinity to recombinant human HSP70 assessed as dissociation constant incubated for 1 hrs […]
Please provide measured pKd for the entries that follow.
The scale used: pKd is minus the common logarithm of the concentration in molar units.

Problem: Which pKd is reported for this compound? C=C1CC[C@H](O)C/C1=C/C=C1\CCC[C@]2(C)[C@@H]([C@H](C)CCCC(C)(C)O)CC[C@@H]12 [CALCIFEDIOL ANHYDROUS]
Solution: 5.19

Problem: Which pKd is reported for this compound? "C=C1CC[C@H](O)C/C1=C/C=C1\CCC[C@]2(C)[C@@H]([C@H](C)[C@H](O)CCC(C)C)CC[C@@H]12"
Solution: 5.37

Problem: Which pKd is reported for this compound? "C=C1CC[C@H](O)C/C1=C/C=C1\CCC[C@]2(C)[C@@H]([C@H](C)[C@@H](O)CCC(C)C)CC[C@@H]12"
Solution: 4.94

Problem: Which pKd is reported for this compound? "C=C1CC[C@H](O)C/C1=C/C=C1\CCC[C@]2(C)[C@@H]([C@H](C)CCCC(C)C)CC[C@@H]12"
Solution: 5.85

Problem: Which pKd is reported for this compound? "COc1ccc(-c2nc(-c3cc(C(F)(F)F)cc(C(F)(F)F)c3)n(Cc3ccc(C(N)=O)cc3)c2-c2ccc(OC)cc2)cc1"
Solution: 6.08

Problem: Which pKd is reported for this compound? "C=C1CC[C@H](O)C/C1=C/C=C1\CCC[C@]2(C)[C@@H]([C@H](C)[C@H](O)CCC(C)(C)O)CC[C@@H]12"
Solution: 4.39

----------
Please provide measured IC50 for the entries that follow.
- Test description: Inhibition of hedgehog signalling in mouse C3H 10T1/2 cells assessed as reduction in Gli1 mRNA expression measured after 48 hrs by RT-PCR analysis
- Format: cell-based
- Condition summary: C3H 10T1/2, 48 h
Give just the numeric value; nM need not be written.

Problem: Which IC50 is reported for this compound? "COc1ccc(-c2nc(-c3cc(C(F)(F)F)cc(C(F)(F)F)c3)n(Cc3ccc(C(N)=O)cc3)c2-c2ccc(OC)cc2)cc1"
Solution: 970

Problem: Which IC50 is reported for this compound? "C=C1CC[C@H](O)C/C1=C/C=C1\CCC[C@]2(C)[C@@H]([C@H](C)[C@@H](O)CCC(C)C)CC[C@@H]12"
Solution: 1300

Problem: Which IC50 is reported for this compound? "C=C1CC[C@H](O)C/C1=C/C=C1\CCC[C@]2(C)[C@@H]([C@H](C)[C@H](O)CCC(C)C)CC[C@@H]12"
Solution: 1200

Problem: Which IC50 is reported for this compound? "C=C1CC[C@H](O)C/C1=C/C=C1\CCC[C@]2(C)[C@@H]([C@H](C)[C@@H](CCC(C)(C)O)OCc3cn(CCOCCOCCOCCNC(=O)CCCC[C@H]4SC[C@H]5NC(=O)N[C@H]54)nn3)CC[C@@H]12"
Solution: 1900

Problem: Which IC50 is reported for this compound? "C=C1CC[C@H](O)C/C1=C/C=C1\CCC[C@]2(C)[C@@H]([C@H](C)[C@@H](O)CCC(C)(C)O)CC[C@@H]12"
Solution: 1200

Problem: Which IC50 is reported for this compound? "C=C1CC[C@H](O)C/C1=C/C=C1\CCC[C@]2(C)[C@@H]([C@H](C)[C@H](CCC(C)(C)O)OCc3cn(CCOCCOCCOCCNC(=O)CCCC[C@H]4SC[C@H]5NC(=O)N[C@H]54)nn3)CC[C@@H]12"
Solution: 7200

Problem: Which IC50 is reported for this compound? C=C1CC[C@H](O)C/C1=C/C=C1\CCC[C@]2(C)[C@@H]([C@H](C)CCCC(C)C)CC[C@@H]12 [CHOLECALCIFEROL]
Solution: 4100

Problem: Which IC50 is reported for this compound? "C=C1CC[C@H](O)C/C1=C/C=C1\CCC[C@]2(C)[C@@H]([C@H](C)[C@H](O)CCC(C)(C)O)CC[C@@H]12"
Solution: 790

Problem: Which IC50 is reported for this compound? "CCn1c(=O)/c(=C2\Sc3ccccc3N2C)s/c1=C\c1cccc[n+]1CC.[Cl-]"
Solution: 5600

Problem: Which IC50 is reported for this compound? C=C1CC[C@H](O)C/C1=C/C=C1\CCC[C@]2(C)[C@@H]([C@H](C)CCCC(C)(C)O)CC[C@@H]12 [CALCIFEDIOL ANHYDROUS]
Solution: 480

Problem: Which IC50 is reported for this compound? "C#CCO[C@H](CCC(C)C)[C@@H](C)[C@H]1CC[C@H]2/C(=C/C=C3/C[C@@H](O)CCC3=C)CCC[C@]12C"
Solution: 1100

Problem: Which IC50 is reported for this compound? "C#CCO[C@@H](CCC(C)C)[C@@H](C)[C@H]1CC[C@H]2/C(=C/C=C3/C[C@@H](O)CCC3=C)CCC[C@]12C"
Solution: 2600

----------
- Measurement target: Vitamin D3 receptor (Mus musculus)
- Sequence (whole entry): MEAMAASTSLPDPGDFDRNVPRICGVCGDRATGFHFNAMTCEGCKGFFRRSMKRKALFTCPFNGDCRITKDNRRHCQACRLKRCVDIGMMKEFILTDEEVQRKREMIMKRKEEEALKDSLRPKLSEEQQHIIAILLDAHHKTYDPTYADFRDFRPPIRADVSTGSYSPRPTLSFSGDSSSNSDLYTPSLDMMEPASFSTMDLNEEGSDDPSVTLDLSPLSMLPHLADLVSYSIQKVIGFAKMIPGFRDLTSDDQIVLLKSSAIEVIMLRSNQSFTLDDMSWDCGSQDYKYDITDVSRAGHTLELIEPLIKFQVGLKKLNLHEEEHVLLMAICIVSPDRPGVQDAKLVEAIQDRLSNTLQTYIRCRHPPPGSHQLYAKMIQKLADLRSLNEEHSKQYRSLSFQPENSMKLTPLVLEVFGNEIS
- Test description: Activation of VDR in mouse C3H 10T1/2 cells assessed as upregulation of Cyp24A1 mRNA expression at 5 uM measured after 48 hrs by RT-PCR analysis relative to control
- Format: cell-based
- Condition summary: filed as activator
Please provide measured Activity for the entries that follow.
Give just the numeric value; % need not be written.

Problem: # value lookup — system Vitamin D3 receptor (Mus musculus), readout Activity, item "C=C1CC[C@H](O)C/C1=C/C=C1\CCC[C@]2(C)[C@@H]([C@H](C)[C@@H](O)CCC(C)(C)O)CC[C@@H]12"
Solution: 540

Problem: # value lookup — system Vitamin D3 receptor (Mus musculus), readout Activity, item "C=C1CC[C@H](O)C/C1=C/C=C1\CCC[C@]2(C)[C@@H]([C@H](C)[C@@H](O)CCC(C)C)CC[C@@H]12"
Solution: 261

Problem: # value lookup — system Vitamin D3 receptor (Mus musculus), readout Activity, item "C=C1CC[C@H](O)C/C1=C/C=C1\CCC[C@]2(C)[C@@H]([C@H](C)[C@H](O)CCC(C)(C)O)CC[C@@H]12"
Solution: 527

Problem: # value lookup — system Vitamin D3 receptor (Mus musculus), readout Activity, item "C=C1CC[C@H](O)C/C1=C/C=C1\CCC[C@]2(C)[C@@H]([C@H](C)CCCC(C)C)CC[C@@H]12"
Solution: 100

Problem: # value lookup — system Vitamin D3 receptor (Mus musculus), readout Activity, item "C=C1CC[C@H](O)C/C1=C/C=C1\CCC[C@]2(C)[C@@H]([C@H](C)[C@H](O)CCC(C)C)CC[C@@H]12"
Solution: 214
